- Assay Text: Plasma pharmacokinetic studies of idronoxil in rats (rectal in cocoa butter vs intestinal in lipid emulsion)
- Type: in vivo, Male Sprague-Dawley rats
- Experimental Conditions: male, Sprague-Dawley, rat, plasma, other: rectal, 10 mg/kg, Rectal delivery, cocoa butter, 10 mg/kg, 6 hr; read-out: Idronoxil Plasma Concentration Rat 3
Observation Type: concentration at 6 h (ng/mL)

{"Structure As Smiles": "Oc1ccc(C2=Cc3ccc(O)cc3OC2)cc1", "Observation Type": "concentration at 6 h", "Measured Result": 21.6}

----------
- Assay Text: Plasma pharmacokinetic studies of idronoxil in rats (rectal in cocoa butter vs intestinal in lipid emulsion)
- Type: in vivo, Male Sprague-Dawley rats
- Experimental Conditions: male, Sprague-Dawley, rat, plasma, other: intraduodenal infusion, 10 mg/kg, Intestinal delivery (intraduodenal infusion), lipid emulsion, 10 mg/kg, 4 hr; read-out: Idronoxil Plasma Concentration Mean

{"Structure As Smiles": "Oc1ccc(C2=Cc3ccc(O)cc3OC2)cc1", "concentration at 4 h (ng/mL)": 9.57}

Values compiled from patent US11559510B2.
